Tested on: Escherichia coli
Measurement description: Growth inhibition of Escherichia coli DH5[alpha] at 200 uM incubated for 16 hrs
Type: functional
Conditions: read-out: GI
Use inhibition of growth at 200 µM to assign classes; range list: low value (below 10%), medium value (10% to below 20%), high value (20% or more)

{"Structure as smiles": "O=C(C(=O)N1CCN(c2ccccn2)CC1)c1c[nH]c2ccccc12", "Label value": "low value"}
{"Structure as smiles": "COc1cc(OC)c2c(-c3ccc(Br)cc3)c[nH]c2c1C(=O)C(=O)Nc1ccc(C)cc1", "Label value": "high value"}
{"Structure as smiles": "COc1cc(OC)c2c(-c3ccc(Cl)cc3)c[nH]c2c1C(=O)C(=O)Nc1ccccc1", "Label value": "high value"}
{"Structure as smiles": "COc1cc(OC)c2c(C)c(C)[nH]c2c1C(=O)C(=O)N1CCCCC1", "Label value": "high value"}
{"Structure as smiles": "COc1cc(OC)c2c(-c3ccc(Br)cc3)c[nH]c2c1C(=O)C(=O)Nc1ccccc1", "Label value": "high value"}
{"Structure as smiles": "COc1cc(OC)c2c(C)c(C)[nH]c2c1C(=O)C(=O)N1CCN(c2ccccn2)CC1", "Label value": "medium value"}
{"Structure as smiles": "O=C(C(=O)N1CCCCC1)c1c[nH]c2ccccc12", "Label value": "low value"}
{"Structure as smiles": "O=C(C(=O)N1CCOCC1)c1c[nH]c2ccccc12", "Label value": "low value"}
{"Structure as smiles": "COc1cc(OC)c2c(-c3ccccc3)c(C(=O)C(=O)N3CCOCC3)oc2c1", "Label value": "low value"}
{"Structure as smiles": "COc1cc(OC)c2c(-c3ccc(Br)cc3)c(C(=O)C(=O)N3CCN(c4ccccn4)CC3)[nH]c2c1", "Label value": "high value"}
{"Structure as smiles": "COc1cc(OC)c2c(C)c(C(=O)C(=O)N3CCOCC3)[nH]c2c1", "Label value": "low value"}
{"Structure as smiles": "COc1cc(OC)c2c(-c3ccc(Br)cc3)c[nH]c2c1C(=O)C(=O)NNc1ccccc1", "Label value": "high value"}
{"Structure as smiles": "COc1cc(OC)c2c(C)c(C(=O)C(=O)N3CCN(c4ccccn4)CC3)[nH]c2c1", "Label value": "high value"}
{"Structure as smiles": "COc1cc(OC)c2c(-c3ccc(Cl)cc3)c(C(=O)C(=O)N3CCCCC3)[nH]c2c1", "Label value": "medium value"}
{"Structure as smiles": "COc1cc(OC)c2c(-c3ccc(Br)cc3)c[nH]c2c1C(=O)C(=O)N1CCN(Cc2ccccc2)CC1", "Label value": "low value"}
{"Structure as smiles": "COc1cc(OC)c2c(-c3ccc(Cl)cc3)c[nH]c2c1C(=O)C(=O)N1CCCC1", "Label value": "high value"}
{"Structure as smiles": "COc1cc(OC)c2c(-c3ccc(Cl)cc3)c(C(=O)C(=O)N3CCOCC3)[nH]c2c1", "Label value": "high value"}
{"Structure as smiles": "COc1cc(OC)c2c(-c3ccc(Cl)cc3)c[nH]c2c1C(=O)Nc1ccc(C)cc1", "Label value": "medium value"}
{"Structure as smiles": "COc1cc(OC)c2c(-c3ccc(Cl)cc3)c[nH]c2c1C(=O)NNc1ccccc1", "Label value": "high value"}

Values compiled from ChEMBL document CHEMBL3399983.
